This collection of values is drawn from the Immune Epitope Database (IEDB).

target_entity: HLA-B*35:01
measurement_description: IEDB peptide-MHC binding, purified MHC/direct/fluorescence; filed as Kd, often an IC50 or EC50 that approximates it; bounds were set here for any values at or beyond the usual limits of such assays
details: source organism: Giardia lamblia ATCC 50803
endpoint_label: Kd (µM)
Give the quantity in µM, number only.

Ask: Answer briefly: Kd recorded on HLA-B*35:01 for ARADGILRF
Reply: 4.03

* * *

target_entity: HLA-A*30:01
measurement_description: IEDB peptide-MHC binding, purified MHC/competitive/fluorescence; filed as Kd, often an IC50 or EC50 that approximates it; bounds were set here for any values at or beyond the usual limits of such assays
details: source organism: Orthomarburgvirus marburgense
endpoint_label: Kd

Ask: Look up Kd of IFDDLQGSL and report it.
Reply: ≥ 20 µM
